As shown below, each of these sequences has a reported apparent KD of MS2 coat protein value.
Tested on: MS2 coat protein
Assay: apparent KD of MS2 coat protein; designed switch direction (-1 OFF switch, 1 ON switch): -1; higher = weaker reporter binding
Settings: Eterna round: R95; input ligand: FMN 200 uM
Output spec: scalar in µM, unitless text.

Input: Which apparent KD of MS2 coat protein is listed for AAGAAACAUGAGGAUCACCCAUGUGAGGAUAUGAAAAAGAAAAUAAAAUAAAUAAUAAUCAGAAGGCACAAAGG [Mat - Mod of Hog D6] (puzzle: Exclusion 1) ?
Output: 0.0431

Input: Let us now turn to GGUACUAACACGAGAGUGUUAGUACUAUAAGCUUGUGUUACAUGAGGAUCACCCAUGUCCUCAUAAGCUCGUCUUGU [Mat - Sensor v3 - Turn-off var 2 - D88] (puzzle: Sensor v3, turn-off variant 2)
Output: 0.0482

Input: Let us now turn to CUAUUACGAGGAUAUGAUUUAAGUAACAUGAGGAUCACCCAUGUUUUUCCGUUGUUAUGUUCAGAAGGCGUAUUAU [JR_E5_Sub023] (puzzle: Exclusion 5)
Output: 0.0861

More entries:
Input: Which apparent KD of MS2 coat protein is listed for ACGUGAUAUCUGUCGGUGGACAUGAGGAUCACCCAUGUAAGCUUUUUGCUCGUCUUACAACCCGGUGACAGACCUUC [Essodiis] (puzzle: Sensor v3, turn-off variant 1) ?
Output: 0.138

Input: Let us now turn to UUUUAACAUGAGGAUCACCCAUGUCAGGAUAUGGUAUUUUUUUUUUUUUUUUUUUUUUCCAGAAGGGACAUUUU [My solution] (puzzle: Exclusion 1)
Output: 0.0165

Input: Let us now turn to CUCCUCGUGGCGCCUAAACACAUGAGGAUCACCCAUGUACAGGCUUUUUGCCGUCUUAUAAUAAAACCGAGGAUACG [Cezabi] (puzzle: Sensor v3, turn-off variant 1)
Output: 0.0191

---

As shown below, each of these sequences has a reported apparent KD of MS2 coat protein value.
System: MS2 coat protein
Assay: apparent KD of MS2 coat protein; designed switch direction (-1 OFF switch, 1 ON switch): -1; higher = weaker reporter binding
Conditions: Eterna round: R95; input ligand: microRNA oligo, concentration not stated
Output spec: scalar in nM, unitless text.

Look over these answered cases.
Input: Which apparent KD of MS2 coat protein is listed for GAGGCAUGCUGAGGUCCACACAUGAGGAUCACCCAUGUAAUGACAAGCUUUUUCCUCGUCUUAUCGCUAUCGCGUUC [Dilaenla] (puzzle: Sensor v3, turn-off variant 1) ?
Output: 28.4

Input: Let us now turn to CAACUGCAUGUGAGGAUAUGCACCGGCCAAGCCGGGCAGAAGGCACAUGAGGAUCACCCAUGUCAUCCUAUUGC [Esusgeraon] (puzzle: Brourd's mod of Exclusion 4)
Output: 12.4

Input: Let us now turn to UUUGUUUAUGUGAGGAUAUACUGUUUGUUUUGUUUGUAGAAGGUACAUGAGGAUCACCCAUGUUUUGUAUUUAU [JR_BME4_Sub034] (puzzle: Brourd's mod of Exclusion 4)
Output: 18.4

Input: Let us now turn to GCCAGAGCAGGAUAUUCAAUGUAUCACAUGAGGAUCACCCAUGUCCAGCGAAAGCUGGAGGGAGAAGGGCUCUGGC [Fiskers Ex 5 - 17] (puzzle: Exclusion 5)
Output: 234

Input: Let us now turn to UUUAAUUUUUUUUUUUUACAAGCUUUUUGCUCGUCUUAUACAUGAGGAUCACCCAUGUGGGUGAGAGAUAAAUUAUC [JMF 14] (puzzle: Sensor v3, turn-off variant 2)
Output: 17

Input: Let us now turn to ACGUGAUAUCUGUCGGUGGACAUGAGGAUCACCCAUGUAAGCUUUUUGCUCGUCUUACAACCCGGUGACAGACCUUC [Essodiis] (puzzle: Sensor v3, turn-off variant 1)
Output: 275

Input: Let us now turn to AGUACUAACACGAGAGUGUUAGUACAAUAAGCUUGUGUUACAUGAGGAUCACCCAUGUCCUCAUAAGCUCGUCUUAU [Mat - Sensor v3 - Turn-off var 2 - D53] (puzzle: Sensor v3, turn-off variant 2)
Output: 246

Input: Let us now turn to GCUCGUACGGAGGAUAUAGAUUUCGGAAACCGACUAGAAGGCCGAACAUGAGGAUCACCCAUGUGAUUUAUAUC [Gesozarequ] (puzzle: Exclusion 6)
Output: 18.9

Input: Let us now turn to AGAUGGAAGCAGGAUAUGCUUGUAUAAUUGAAAGCAGAAGGGCUAACAUGAGGAUCACCCAUGUAAGAGGUGUA [JR_E6_Sub059] (puzzle: Exclusion 6)
Output: 282

Continue with the next sequence.
Input: Which apparent KD of MS2 coat protein is listed for AGUACUAACACGAGAGUGUUAGUACUAUAAGCUUGUGUUACAUGAGGAUCACCCAUGUCCUCAUAGGCUCGUCUUAG [Mat - Sensor v3 - Turn-off var 2 - D83] (puzzle: Sensor v3, turn-off variant 2) ?
Output: 42.7
